Target: DLL3 endogenously expressed on NCI-H82 cells (UniProt Q9NYJ7)
Sequence (Q9NYJ7 27-618): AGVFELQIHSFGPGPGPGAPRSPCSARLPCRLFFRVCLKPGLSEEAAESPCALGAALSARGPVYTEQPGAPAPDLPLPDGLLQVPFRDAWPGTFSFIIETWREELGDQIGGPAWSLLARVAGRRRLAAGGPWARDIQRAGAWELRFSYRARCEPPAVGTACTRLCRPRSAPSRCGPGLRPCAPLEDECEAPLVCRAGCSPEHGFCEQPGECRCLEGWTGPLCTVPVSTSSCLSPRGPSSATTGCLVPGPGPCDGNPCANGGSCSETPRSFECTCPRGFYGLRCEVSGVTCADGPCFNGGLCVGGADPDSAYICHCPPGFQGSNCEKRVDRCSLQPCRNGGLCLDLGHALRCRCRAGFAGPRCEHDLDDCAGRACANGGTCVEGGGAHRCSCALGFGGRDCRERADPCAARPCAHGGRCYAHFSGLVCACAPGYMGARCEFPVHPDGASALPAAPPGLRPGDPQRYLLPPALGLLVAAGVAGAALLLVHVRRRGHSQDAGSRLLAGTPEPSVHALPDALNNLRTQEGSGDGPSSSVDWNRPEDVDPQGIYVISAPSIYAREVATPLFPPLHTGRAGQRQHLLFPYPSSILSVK
Assay: FACS on NCI-H82 cells; antibody 100 nM
I'd appreciate it if you could supply MFI values for the items below.
Answers are plain numbers.

In the examples that follow, each entry is paired with its recorded MFI.
Binder	Recorded value
mab006 scFv-hFc (Fc fusion, part only; not given: linker and human IgG1 Fc, not shown: a dimerising Fc or GST) chain, part: DVQITQSPSYLAASPGETITINCRATKSISKYLAWYQEKPGKTNKLLIFSGSTLQSGIPSRFRGSGSGTDFTLTISSLEPEDFAMYYCQQHHEYPYTFGGGTKLEIKQVQLQQPGAELVRPGTSVKLSCKASGYTFTSYWMHWVRQRPGQGLEWIGVIDPSDSLANYNQEFKGKATLTVDTSSSTAYMQLSSLTSEDSAVYYCARDSTVVAPMDYWGQGTSVTVSS	586
Hab015VL5VH1a-hFc (scFv, part only; not given: scFv linker and human IgG1 Fc, V domains shown, not shown: another chain or arm of the molecule; a dimerising Fc or GST; small tags and cut ends) VL: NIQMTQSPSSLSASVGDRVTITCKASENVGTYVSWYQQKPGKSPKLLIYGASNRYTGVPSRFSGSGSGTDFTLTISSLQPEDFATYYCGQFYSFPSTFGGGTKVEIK VH: EVQLVESGGGLVKPGGSLRLSCAASGITFSNFWMNWVRQAPGKGLEWVGQIRLKSDDYATHYAESVKGRFTISREDSKNTVYLQMNSLKTEDTAVYYCTTGYYFDYWGQGTTVTVSS	1220
Hab015VL5VH1b-hFc (scFv, part only; not given: VL-VH linker and human IgG1 Fc, V domains shown, not shown: another chain or arm of the molecule; a dimerising Fc or GST; small tags and cut ends) VL: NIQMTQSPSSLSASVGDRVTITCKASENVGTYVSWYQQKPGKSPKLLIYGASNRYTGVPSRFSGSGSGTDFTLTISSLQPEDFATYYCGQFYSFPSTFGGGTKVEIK VH: EVQLVESGGGLVKPGGSLRLSCAASGITFSNFWMNWVRQAPGKGLEWVGQIRLKSEDYATHYAESVKGRFTISREDSKNTVYLQMNSLKTEDTAVYYCTTGYYFDYWGQGTTVTVSS	983
mab009 scFv-hFc (Fc fusion, part only; not given: Linker and human IgG1 Fc, not shown: a dimerising Fc or GST) chain, part: DIVMTQSPATLSVTPGDRVSLSCRASQTISDYLHWYQQRSHESPRLLIKYASQSISGIPSRFSGSGSGSDFTLSINSVEPEDVGVYYCQNGHSFPLTFGAGTKLELKEVQLQQSGTVLARPGASVKMSCKTSGYTFTSYWMHWVKQSPGQGLEWIGTIYPGNSDTRYNQKFKDKAYVTAVTSASTAYMELSSLTNEESAVYYCTRSYDYGDLDYWGQGTTLTVSS	968

Q. Provide only the value of recorded MFI for Hab008L1H2a-hFc (scFv, part only; not given: VL-VH linker and human IgG1 Fc, V domains shown, not shown: another chain or arm of the molecule; a dimerising Fc or GST; small tags and cut ends) VL: DIQMTQSPSSLSASVGDRVTITCKASQNVGTAVAWYQQKPGKSPKLLIFSASIRYTGVPSRFSGSGSGTDFTLTISSLQPEDFATYYCQQYSSSPYTFGGGTKVEIK VH: EVQLVQSGAEVKKPGASVKVSCKASGYTFTDYYMNWVRQAPGQRLEWMGIINPYNSGTSYNQKFRGRVTLTVDKSASTAYMELSSLRSEDTAVYYCSRYDYDYDVEGAMDYWGQGTTVTVSS
A. 617
